Source listed as the supplement of paper PMC9112550.

test system: Escherichia coli TOP10; assay: shrunken log2 fold change of peptide-encoding DNA abundance (4.5 h post-induction vs induction); higher = less antimicrobial activity (less host growth inhibition); conditions: time post-induction: 4.5 h; library: site-saturation at positions 5, 18, 19, 20
Entries and their shrunken log2 fold change values follow.

{"columns": ["item-sequence", "shrunken log2 fold change"],
 "data": [
  ["RRIRLRPPRLPRPRPRPYFLPRP", -0.798],
  ["RRIRVRPPRLPRPRPRPYMWPRP", -0.48],
  ["RRIRSRPPRLPRPRPRPQVEPRP", 0.0664],
  ["RRIRRRPPRLPRPRPRPPTKPRP", 0.52]
]}

###

system: Escherichia coli TOP10; test: shrunken log2 fold change of peptide-encoding DNA abundance (4.5 h post-induction vs induction); higher = less antimicrobial activity (less host growth inhibition); conditions: time post-induction: 4.5 h; library: site-saturation at positions 5, 18, 19, 20

{"columns": ["item-sequence", "shrunken log2 fold change"],
 "data": [
  ["RRIRFRPPRLPRPRPRPFEDPRP", -0.0916],
  ["RRIRQRPPRLPRPRPRPEWVPRP", 3.27],
  ["RRIRGRPPRLPRPRPRPEKIPRP", 0.672],
  ["RRIRGRPPRLPRPRPRPNFFPRP", 0.122],
  ["RRIRARPPRLPRPRPRPEYTPRP", -0.0194],
  ["RRIRVRPPRLPRPRPRPSIGPRP", -0.197],
  ["RRIRTRPPRLPRPRPRPYVHPRP", -0.75],
  ["RRIRDRPPRLPRPRPRPQWGPRP", -0.0612],
  ["RRIRSRPPRLPRPRPRPHSDPRP", -0.0834],
  ["RRIRLRPPRLPRPRPRPYKPPRP", -0.789],
  ["RRIRCRPPRLPRPRPRPATAPRP", 0.41],
  ["RRIRERPPRLPRPRPRPCMAPRP", -0.336],
  ["RRIRDRPPRLPRPRPRPHDAPRP", 0.0126],
  ["RRIRARPPRLPRPRPRPCEHPRP", 0.0977],
  ["RRIRIRPPRLPRPRPRPLGQPRP", -0.00501],
  ["RRIRYRPPRLPRPRPRPPGIPRP", 0.0348],
  ["RRIRTRPPRLPRPRPRPFFNPRP", -0.582],
  ["RRIRGRPPRLPRPRPRPSLMPRP", 0.5],
  ["RRIRHRPPRLPRPRPRPPCGPRP", 0.176],
  ["RRIRSRPPRLPRPRPRPHHSPRP", -0.464],
  ["RRIRQRPPRLPRPRPRPEYTPRP", -0.11],
  ["RRIRQRPPRLPRPRPRPCWEPRP", -0.126],
  ["RRIRRRPPRLPRPRPRPKYIPRP", -0.135],
  ["RRIRHRPPRLPRPRPRPCPGPRP", -0.541],
  ["RRIRARPPRLPRPRPRPDCAPRP", 0.826],
  ["RRIRKRPPRLPRPRPRPQYCPRP", -0.0171],
  ["RRIRCRPPRLPRPRPRPLPTPRP", 0.63],
  ["RRIRFRPPRLPRPRPRPDNQPRP", -0.834],
  ["RRIRDRPPRLPRPRPRPCIYPRP", -0.0518],
  ["RRIRYRPPRLPRPRPRPYNWPRP", -0.593],
  ["RRIRLRPPRLPRPRPRPREAPRP", 0.641],
  ["RRIRMRPPRLPRPRPRPEVYPRP", -0.0346],
  ["RRIRCRPPRLPRPRPRPDFLPRP", -0.657],
  ["RRIRHRPPRLPRPRPRPEGMPRP", -0.0777],
  ["RRIRMRPPRLPRPRPRPIRIPRP", -0.0023],
  ["RRIRQRPPRLPRPRPRPEGQPRP", -0.0666],
  ["RRIRERPPRLPRPRPRPRRVPRP", 0.447],
  ["RRIRSRPPRLPRPRPRPTSDPRP", -0.00252],
  ["RRIRGRPPRLPRPRPRPIICPRP", 0.026],
  ["RRIRRRPPRLPRPRPRPFHTPRP", -0.0624],
  ["RRIRRRPPRLPRPRPRPLDEPRP", 0.632],
  ["RRIRHRPPRLPRPRPRPTDYPRP", 0.029],
  ["RRIRCRPPRLPRPRPRPVCVPRP", -0.0801],
  ["RRIRQRPPRLPRPRPRPTTIPRP", -0.116],
  ["RRIRQRPPRLPRPRPRPTRWPRP", 0.561],
  ["RRIRQRPPRLPRPRPRPIVDPRP", 0.0252],
  ["RRIRSRPPRLPRPRPRPPARPRP", 0.876]
]}

###

test system: Escherichia coli TOP10; assay: shrunken log2 fold change of peptide-encoding DNA abundance (4.5 h post-induction vs induction); higher = less antimicrobial activity (less host growth inhibition); conditions: time post-induction: 4.5 h; library: site-saturation at positions 5, 18, 19, 20
Listing of entries alongside the reported shrunken log2 fold change.

{"columns": ["item-sequence", "tested-system", "shrunken log2 fold change"],
 "data": [
  ["RRIRHRPPRLPRPRPRPRPFPRP", "Escherichia coli TOP10", -0.18],
  ["RRIRWRPPRLPRPRPRPRFVPRP", "Escherichia coli TOP10", 0.139],
  ["RRIRKRPPRLPRPRPRPEYMPRP", "Escherichia coli TOP10", 0.264],
  ["RRIRFRPPRLPRPRPRPEPQPRP", "Escherichia coli TOP10", 0.417],
  ["RRIRLRPPRLPRPRPRPLTLPRP", "Escherichia coli TOP10", 0.134],
  ["RRIRYRPPRLPRPRPRPKRFPRP", "Escherichia coli TOP10", 0.00705],
  ["RRIRHRPPRLPRPRPRPAVFPRP", "Escherichia coli TOP10", -0.0167]
]}

###

test system: Escherichia coli TOP10; test: shrunken log2 fold change of peptide-encoding DNA abundance (4.5 h post-induction vs induction); higher = less antimicrobial activity (less host growth inhibition); conditions: time post-induction: 4.5 h; library: site-saturation at positions 5, 18, 19, 20

{"columns": ["item-sequence", "shrunken log2 fold change"],
 "data": [
  ["RRIRHRPPRLPRPRPRPKEIPRP", -0.00142],
  ["RRIRFRPPRLPRPRPRPFDPPRP", -0.135],
  ["RRIRVRPPRLPRPRPRPQVMPRP", -0.112],
  ["RRIRSRPPRLPRPRPRPEATPRP", 0.72],
  ["RRIRNRPPRLPRPRPRPPRFPRP", 0.441],
  ["RRIRIRPPRLPRPRPRPDKYPRP", -0.189],
  ["RRIRCRPPRLPRPRPRPDFHPRP", -0.685],
  ["RRIRVRPPRLPRPRPRPCTKPRP", -0.275],
  ["RRIRARPPRLPRPRPRPIVAPRP", 0.371],
  ["RRIRARPPRLPRPRPRPAVRPRP", 0.545],
  ["RRIRIRPPRLPRPRPRPVTLPRP", -0.093],
  ["RRIRERPPRLPRPRPRPVHYPRP", 0.198],
  ["RRIRGRPPRLPRPRPRPLAIPRP", 0.567],
  ["RRIRKRPPRLPRPRPRPRCHPRP", 0.237],
  ["RRIRIRPPRLPRPRPRPKPLPRP", -0.191],
  ["RRIRLRPPRLPRPRPRPSFCPRP", -0.403],
  ["RRIRQRPPRLPRPRPRPDYCPRP", -0.163],
  ["RRIRYRPPRLPRPRPRPVPIPRP", -0.297],
  ["RRIRRRPPRLPRPRPRPFAKPRP", 0.219],
  ["RRIRIRPPRLPRPRPRPQMIPRP", -0.241],
  ["RRIRMRPPRLPRPRPRPATNPRP", 0.499],
  ["RRIRQRPPRLPRPRPRPQYQPRP", -1.46],
  ["RRIRQRPPRLPRPRPRPFCQPRP", 0.53],
  ["RRIRKRPPRLPRPRPRPDCAPRP", 1.1],
  ["RRIRYRPPRLPRPRPRPTEMPRP", -0.306],
  ["RRIRCRPPRLPRPRPRPQCLPRP", -0.442],
  ["RRIRSRPPRLPRPRPRPPGHPRP", 0.167],
  ["RRIRNRPPRLPRPRPRPWRFPRP", -0.0929],
  ["RRIRWRPPRLPRPRPRPHPRPRP", 0.451],
  ["RRIRRRPPRLPRPRPRPFRQPRP", -0.0196]
]}

###

system: Escherichia coli TOP10; assay: shrunken log2 fold change of peptide-encoding DNA abundance (4.5 h post-induction vs induction); higher = less antimicrobial activity (less host growth inhibition); details: time post-induction: 4.5 h; library: site-saturation at positions 5, 18, 19, 20;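 further: peptides expressed intracellularly from a pBAD plasmid library in pooled LB shake-flask culture, induced with 0.3% L-arabinose, DNA abundance read by NGS, three biological replicates, DESeq2 with apeglm shrinkage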

{"columns": ["item-sequence", "tested-system", "shrunken log2 fold change"],
 "data": [
  ["RRIRARPPRLPRPRPRPSEAPRP", "Escherichia coli TOP10", 0.52],
  ["RRIRERPPRLPRPRPRPIYIPRP", "Escherichia coli TOP10", -0.138],
  ["RRIRQRPPRLPRPRPRPGAVPRP", "Escherichia coli TOP10", 0.274],
  ["RRIRHRPPRLPRPRPRPARSPRP", "Escherichia coli TOP10", 0.0188],
  ["RRIRSRPPRLPRPRPRPEICPRP", "Escherichia coli TOP10", 0.0531],
  ["RRIRIRPPRLPRPRPRPIEMPRP", "Escherichia coli TOP10", -0.00843]
]}
